FYI, the data here is from PubChem BioAssay AID1376.

Target: Bifunctional protein GlmU (Mycobacterium tuberculosis (strain ATCC 25618 / H37Rv)) (UniProt P9WMN3)
Sequence (P9WMN3 whole entry, looked up): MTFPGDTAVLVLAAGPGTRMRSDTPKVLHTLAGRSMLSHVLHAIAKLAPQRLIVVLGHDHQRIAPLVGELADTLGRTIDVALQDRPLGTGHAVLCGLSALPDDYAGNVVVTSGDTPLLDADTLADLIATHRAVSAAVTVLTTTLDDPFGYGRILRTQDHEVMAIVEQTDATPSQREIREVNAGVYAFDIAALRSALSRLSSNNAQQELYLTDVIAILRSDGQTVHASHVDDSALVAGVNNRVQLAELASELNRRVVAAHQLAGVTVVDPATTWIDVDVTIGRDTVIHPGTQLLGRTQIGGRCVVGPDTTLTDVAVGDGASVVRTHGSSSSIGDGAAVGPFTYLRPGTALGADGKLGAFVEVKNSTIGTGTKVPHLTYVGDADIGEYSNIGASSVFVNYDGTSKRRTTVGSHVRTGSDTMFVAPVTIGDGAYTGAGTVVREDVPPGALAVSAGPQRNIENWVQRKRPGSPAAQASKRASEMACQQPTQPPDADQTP
Assay: inhibition of mycobacterial GlmU enzyme – biochemical, glucosamine-1-phosphate acetyltransferase (AID 1376);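 note: 0% = complete reaction with vehicle and 100% = reaction without substrate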
Conditions: M. tuberculosis GlmU acetyltransferase enzyme assay; hits give high values;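 tested at 30 µM in the primary screen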
The whole screen tested about 220,000 compounds, of which about 530 (0.24%) were called active. The full list was thinned out, with actives kept by preference. Results with a measured potency or affinity are listed apart.
Measured endpoint: inhibition

> print(dat)
                                   compound  measured.endpoint             result
1  Cn1c(Cc2ccc3c(c2)OCO3)nnc1SCC(=O)N1CCc2ccccc2C1         inhibition   1.71% (inactive)
2  CCOC(=O)C1C(=O)NC(SCC(N)=O)=C(C#N)C1c1ccccc1OCC (stereo not given)         inhibition   5.97% (inactive)
3  O=C(O)c1ccc(N=Cc2c(O)n(Cc3ccc(F)cc3)c(=O)[nH]c2=O)cc1         inhibition     -1% (inactive)
4  COc1ccc(N2CC(C(=O)Nc3ccc4c(c3)OCO4)CC2=O)cc1 (stereo not given)         inhibition  -2.39% (inactive)
5  O=C(CN(CC1CCCO1)S(=O)(=O)c1ccc(S(=O)(=O)NCC2CCCO2)cc1)Nc1ccccc1 (stereo not given)         inhibition   5.97% (inactive)

###

Biological target: Bifunctional protein GlmU (Mycobacterium tuberculosis (strain ATCC 25618 / H37Rv))
Test: inhibition of mycobacterial GlmU enzyme – biochemical, glucosamine-1-phosphate acetyltransferase (AID 1376);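 note: 0% = complete reaction with vehicle and 100% = reaction without substrate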
Conditions: M. tuberculosis GlmU acetyltransferase enzyme assay;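 tested at 30 µM in the primary screen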
Out of some 220,000 compounds screened, about 530 (0.24%) were called active. Rule as the data show it: active = inhibition above about 13%; inconclusive = no clear call, values can overlap the other calls; inactive = below that. Shown is part of a subset that was picked to be rich in actives. Measured potencies and affinities stand elsewhere.
Outcome codes: active, inactive

> print(dat)
                                   compound  class.label
1                    O=C(O)CCSc1nc2ccccc2s1       active
2       O=C(CSc1nc2ccccc2s1)CSc1nc2ccccc2s1     inactive
3   O=C(O)c1cccc(NN=C2c3ccccc3-c3ccccc32)c1     inactive
4  COc1ccc(C(Nc2ccc(S(=O)(=O)NCC3CCCO3)cc2)C(=O)NC(C)(C)C)cc1OC (stereo unspecified)     inactive
5             Cc1ccsc1/C=N/NC(=S)NCc1ccccc1     inactive
6  CC(C)(C)NCC(O)Cn1cc(C=O)c2ccccc21 (stereo unspecified)     inactive

###

Target: Bifunctional protein GlmU (Mycobacterium tuberculosis (strain ATCC 25618 / H37Rv)) (UniProt P9WMN3)
Test: inhibition of mycobacterial GlmU enzyme – biochemical, glucosamine-1-phosphate acetyltransferase (AID 1376);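 note: 0% = complete reaction with vehicle and 100% = reaction without substrate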
Details: M. tuberculosis GlmU acetyltransferase enzyme assay; hits give high values;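 tested at 30 µM in the primary screen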
The campaign covered roughly 220,000 compounds. About 530 (0.24%) were called active. Only a selection was taken, and actives are over-represented in it overall. Entries with a potency or affinity are not part of this list.
Let's look at some compounds and their measured inhibition.
Measured endpoint: inhibition (%)

> print(dat)
                                    compound  endpoint.unit  result
 1         Cc1ccccc1/C=N/NC(=O)Cc1ccc(Cl)cc1              %     0.8
 2  COc1cc(/C=C2/C(=N)N3C=CSC3=NC2=O)ccc1OCCCOc1ccccc1C              %   -3.86
 3     CCN(CC)S(=O)(=O)c1ccc2nc(CCl)[nH]c2c1              %   -0.14
 4  Cc1noc(NS(=O)(=O)c2ccc(N/C=C\C(=O)c3ccncc3)cc2)c1C              %    3.38
 5  CCOc1ccc(N2C(=O)C3C(c4ccccc4)=NN(c4ccccc4)C3C2=O)cc1 (centres undefined)              %    4.13
 6   S=c1[nH]nc(-c2cccnc2)n1/N=C/C=C/c1ccco1              %    7.53
 7  Cc1ccc(C(=O)N/C(=C\c2ccccc2)C(=O)NCc2cccnc2)cc1              %    -0.7
 8  COc1ccc(CN2C(=O)NC(=O)/C(=C/c3ccc([N+](=O)[O-])s3)C2=O)cc1              %    6.92
 9  O=C1[C@H]2C(c3ccccc3)=NN(c3ccccc3)[C@H]2C(=O)N1c1ccccc1              %    14.2
10  O=C1NC(=O)N(c2ccccc2)C(=O)/C1=C\c1ccc([N+](=O)[O-])o1              %    16.7
11   S=c1[nH]nc(-c2ccccc2)n1/N=C/C=C/c1ccco1              %     6.1
12  Cc1ccc(C(=O)/C=C/Nc2ccc(S(=O)(=O)Nc3onc(C)c3C)cc2)cc1              %    14.2
13  Cc1cc(/C=C2/C(=N)N3C(c4ccccc4)=CSC3=NC2=O)c(C)n1-c1ccccc1              %   -4.29
14  Cc1ccc(-n2c(C)cc(/C=C3/C(=N)N4C(c5ccccc5)=CSC4=NC3=O)c2C)cc1              %    7.47

###

Molecular target: Bifunctional protein GlmU (Mycobacterium tuberculosis (strain ATCC 25618 / H37Rv))
Experiment: inhibition of mycobacterial GlmU enzyme – biochemical, glucosamine-1-phosphate acetyltransferase (AID 1376);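 note: 0% = complete reaction with vehicle and 100% = reaction without substrate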
Conditions: M. tuberculosis GlmU acetyltransferase enzyme assay;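 tested at 30 µM in the primary screen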
The campaign covered roughly 220,000 compounds. About 530 (0.24%) were called active. No stated cut-off is given here; in the data, active means inhibition above about 13%; inconclusive means no clear call, values can overlap the other calls; inactive means below that. The full list was thinned out, with actives kept by preference. Potency and affinity values are given separately.
Outcome codes: Yes = active, No = inactive

> print(dat)
                                    molecule  class.label
 1  Cc1ccc(NC(=O)c2cccc(C(=O)OC(C)C)n2)c(Br)c1           No
 2  Cc1ccc(N(CC(=O)NCCSCc2ccco2)S(=O)(=O)c2ccc(C)cc2)cc1           No
 3                       NNC(=O)c1cc2sccc2s1          Yes
 4              CCCCC(=O)Nc1nc(C)c(C(C)=O)s1           No
 5              Cc1ccc(C(=O)NCc2ccccn2)cc1Cl           No
 6  Cc1nnc(SCc2nc3sc(C(=O)O)c(C)c3c(=O)[nH]2)s1           No
 7  Cc1nc([N+](=O)[O-])cn1-c1nc2ccccn2c1[N+](=O)[O-]           No
 8  O=[N+]([O-])c1c(N2CCN(CCO)CC2)nc2ccccn12          Yes
 9  COc1cccc(OC)c1C(=O)N1CCN(Cc2ccccc2C(F)(F)F)CC1           No
10  CC1(C)CC(=O)C2=C(C1)NC(=O)CC2c1ccc(N(CCC#N)CCC#N)cc1 (centres undefined)           No
11          CCOc1c(C#N)c(C#N)c2nc(C)cc(C)n12           No
12  Cc1cc(C)c2c(=O)n(CC(=O)Nc3cccc(Cl)c3C)sc2n1           No
13                    N#Cc1cc(N)ccc1-n1cccc1          Yes
14                 CC1CCN(c2ncnc3ccccc23)CC1           No
15  Cc1cc(C)c2c(=O)n(CC(=O)N3CCC(N4CCCCC4)CC3)sc2n1           No
16  CS(=O)(=O)N1CCC(C(=O)Nc2ccc(C(F)(F)F)cc2)CC1           No
17              O=[N+]([O-])c1cccnc1N1CCOCC1           No
18  Cc1cc(C)c2c(=O)n(CC(=O)Nc3ccc(Cl)cc3)sc2n1          Yes
19           CCCNC(=O)Cn1sc2nc(C)cc(C)c2c1=O           No
20  O=C(NCc1ccc2c(c1)OCO2)c1cc(-c2ccc(Cl)cc2Cl)on1           No
21  CC1=NN(c2ccccc2)C(=O)/C1=C/c1c(O)n(-c2ccc(F)c(Cl)c2)[nH]c1=O          Yes
22     N/C(=N\N=C\c1ccc(O)cc1O)N[N+](=O)[O-]           No
23       COc1cc(CNCc2c[nH]c3ccccc23)cc(OC)c1           No
24  CCOC(=O)N1CCN(CC(=O)N2c3ccccc3CCc3ccccc32)CC1           No
25  O=C(N/N=C/c1ccc(-c2cccc([N+](=O)[O-])c2)o1)c1ccccc1O           No
26  COc1cc2c(cc1NS(=O)(=O)N1CCCC1)oc1ccccc12           No
27  Cc1cc(N2CCN(Cc3nc(-c4ccc(F)cc4)oc3C)CC2)cc(C)n1           No
28  CCOc1ccc(NC(=O)CSc2n[nH]c(N)n2)c([N+](=O)[O-])c1           No
29          O=C1CCN(c2ncccc2[N+](=O)[O-])CC1           No
30  Cc1cccc(-n2c(=O)[nH]c3c(C(N)=O)nc(C(C)C)nc32)c1           No
31                 Cc1csc(OCc2ccc(C#N)cc2)n1           No
32  CCN(CC)S(=O)(=O)c1cc(NC(=O)COC(=O)CCC(=O)c2cccs2)ccc1C           No
33  Cc1cccc(NC(=S)NNC(=O)c2csc3c2CCC(C)C3)c1 (centres undefined)           No
34                  CCOc1ccccc1CNc1ccc(O)cc1          Yes
35            COc1cccc(/C=N\n2c(C)nnc2C)c1OC           No
36      COc1ccc(N2CCN(c3ccc(N)cc3C#N)CC2)cc1           No
37       CCn1c2ccccc2c2nc3cc(C(=O)O)ccc3nc21           No
38  O=[N+]([O-])c1ccc(O)c(/C=N/Nc2nc3ccccc3[nH]2)c1           No
39  CC(C)(Cc1ccc(O)cc1)NC(=O)CC(=O)N/N=C/c1ccc([N+](=O)[O-])cc1           No
